test-system: T1, La WT (LARP3) (Homo sapiens, UniProt P05455 1-408)
T1 sequence: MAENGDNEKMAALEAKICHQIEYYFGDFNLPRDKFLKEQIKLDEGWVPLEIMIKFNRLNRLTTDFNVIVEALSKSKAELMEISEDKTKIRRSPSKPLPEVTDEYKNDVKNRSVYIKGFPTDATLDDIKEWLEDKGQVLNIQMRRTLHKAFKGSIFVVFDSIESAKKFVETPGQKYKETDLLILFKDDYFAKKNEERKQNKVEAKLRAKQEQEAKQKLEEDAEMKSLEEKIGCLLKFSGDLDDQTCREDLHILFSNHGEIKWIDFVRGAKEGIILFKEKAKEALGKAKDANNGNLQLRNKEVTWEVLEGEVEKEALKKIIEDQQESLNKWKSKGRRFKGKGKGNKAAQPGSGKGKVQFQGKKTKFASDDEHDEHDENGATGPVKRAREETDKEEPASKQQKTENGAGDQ
protocol-notes: fluorescence polarization; 5'-FAM RNA; 20 mM Tris/HCl pH 8.0, 150 mM NaCl, 1.5 mM MgCl2, 0.5 mM EDTA, 0.5% NP-40 (FP: IGEPAL CA-630, 100 ug/ml bovine gamma globulin), 10 nM RNA, room temperature
measurement-parameters: protein: recombinant; tags: His; label: 32P (EMSA) or 5'-FAM (FP); hairpin (predicted)
measured-metric: Kd (nM)
Write it as a number; the unit nM goes unstated.

Identify Kd associated with the binder GCUGCCCAGGAAGAGCCCCAGCCAUGGAACACCAGCUCCUGUGCUGC (structured_RNA) [D1-AUG]
76
